assay: Population PK model estimate of steady-state parent MT Cmax in AD patients (Studies 005 and 015); format: in vivo, human; settings: human, plasma, oral, 8 mg/day, AD, studies TRx-237-015 and TRx-237-005; 8 mg/day - Group 3; read-out: Plasma-modelled parent MT Cmax,ss Range
Endpoint Label: Cmax

The compound identified as CN(C)c1ccc2c(c1)Sc1cc(N(C)C)ccc1N2 [LMTM] registered its Cmax at 0.415 to 0.478 ng/mL

* * *

test: Population PK model estimate of steady-state parent MT Cmax in AD patients (Studies 005 and 015); type: in vivo, human; conditions: human, plasma, oral, 200 mg/day, AD, studies TRx-237-015 and TRx-237-005; 200 mg/day; read-out: Plasma-modelled parent MT Cmax,ss Range
Endpoint Label: Cmax

Entry CN(C)c1ccc2c(c1)Sc1cc(N(C)C)ccc1N2 [LMTM] , Cmax reported as 6.56 to 21.3 ng/mL

* * *

assay: Population PK model estimate of steady-state parent MT Cmax in AD patients (Studies 005 and 015); format: in vivo, human; conditions: human, plasma, oral, 8 mg/day, AD, studies TRx-237-015 and TRx-237-005; 8 mg/day - Group 1; read-out: Plasma-modelled parent MT Cmax,ss Range
Endpoint Label: Cmax

// field: Cmax; key: CN(C)c1ccc2c(c1)Sc1cc(N(C)C)ccc1N2 [LMTM] ; value = 0.257 to 0.373 ng/mL

* * *

experiment: Population PK model estimate of steady-state parent MT Cmax in AD patients (Studies 005 and 015); format: in vivo, human; conditions: human, plasma, oral, 8 mg/day, AD patients receiving LMTM 8 mg/day; read-out: Cmax,ss threshold, upper limit of the lowest 35% of patients
Endpoint Label: Cmax

According to the records, this molecule CN(C)c1ccc2c(c1)Sc1cc(N(C)C)ccc1N2 displays Cmax of < 0.373 ng/mL

* * *

assay: Population PK model estimate of steady-state parent MT Cmax in bvFTD trial patients; assay type: in vivo; details: human, plasma, oral, 8 mg/day, read-out: Cmax,ss cut-off, upper limit of the lowest 35% group
Endpoint Label: Cmax (ng/mL)
Please reply with the bare figure in ng/mL and do not write the unit itself.

The measured Cmax associated with CN(C)c1ccc2c(c1)Sc1cc(N(C)C)ccc1N2 reads 0.346

* * *

assay: Population PK model estimate of steady-state parent MT Cmax in AD patients (Studies 005 and 015); format: in vivo, human; conditions: human, plasma, oral, 8 mg/day, AD, studies TRx-237-015 and TRx-237-005; 8 mg/day - Group 4; read-out: Plasma-modelled parent MT Cmax,ss Range
Endpoint Label: Cmax

Cmax measured on CN(C)c1ccc2c(c1)Sc1cc(N(C)C)ccc1N2 [LMTM] = 0.479 to 0.812 ng/mL
